Values were extracted from ChEMBL document CHEMBL1142540.

- Test name: Inhibition of HIV1 LTR-driven CAT gene expression in PMA-stimulated human JURKAT cells
- Assay type: cell-based
- Settings: Human immunodeficiency virus 1, Jurkat
Assay metric: IC50

Some solved cases for reference:
COc1ccc(Cc2cc(C3CCN(C(=O)c4ccc5c(c4)OCO5)CC3)nc(Cl)n2)cc1    700 nM
Nc1nc(Cc2ccc(O)cc2)cc(C2CCN(C(=O)c3ccc4c(c3)OCO4)CC2)n1    > 5000 nM
COc1ccc(Cc2cc(C3CCN(C(=O)c4ccc5occc5c4)CC3)nc(N)n2)cc1    > 5000 nM

Give recorded IC50. COc1ccc(Cc2cc(C3CCN(C(=O)c4ccc5c(c4)OCO5)CC3)n[nH]2)cc1
> 5000 nM

Give recorded IC50. COc1ccc(Cc2cc(C3CCN(C(=O)c4ccc5c(c4)OCO5)CC3)ncn2)cc1
500 nM

====

- Test name: Inhibition of HIV1 LTR-driven CAT gene expression in Tat-stimulated human JURKAT cells
- Type: cell-based
- Settings: Human immunodeficiency virus 1, Jurkat
Recorded measurements of pIC50, one per entry
Formally, pIC50 is defined as -log10 of the concentration c, with c in mol/L.

Give recorded pIC50. COc1ccc(Cc2cc(C3CCN(C(=O)c4ccc5c(c4)OCO5)CC3)nc(N)n2)cc1
5.40

Give recorded pIC50. Nc1nc(Cc2ccc(OCc3ccccc3)cc2)cc(C2CCN(C(=O)c3ccc4c(c3)OCO4)CC2)n1
5.68

Give recorded pIC50. Nc1nc(Cc2ccc(Cl)cc2)cc(C2CCN(C(=O)c3ccc4c(c3)OCO4)CC2)n1
5.15

====

Recorded measurements of pIC50, one per entry
- Test name: Inhibition of HIV1 LTR-driven CAT gene expression in PMA-stimulated human JURKAT cells
- Type: cell-based
- Settings: Human immunodeficiency virus 1, Jurkat
pIC50: −log10 of the molar value.

Some solved cases for reference:
COc1ccc(-c2c(C)nc(N)nc2C2CCN(C(=O)c3ccc4c(c3)OCO4)CC2)cc1    < 5.30
COc1ccc(Cc2cc(C3CCN(C(=O)c4ccc5c(c4)OCO5)CC3)nc(N)n2)cc1OC    6.22
COc1ccc(Cc2cc(C3CCN(C(=O)c4ccc(Cl)c(Cl)c4)CC3)nc(N)n2)cc1    < 5.30
COc1ccc(Cc2cc(C3CCN(C(C)=O)CC3)nc(N)n2)cc1    < 5.30

The record that follows has no pIC50 shown yet.
Give recorded pIC50. COc1ccc(Cc2cc(C3CCN(C(=O)c4ccc5ncoc5c4)CC3)nc(N)n2)cc1
< 5.30

====

Recorded measurements of pIC50, one per entry
- Test name: Inhibition of HIV1 LTR-driven CAT gene expression in PMA-stimulated human JURKAT cells
- Type: cell-based
- Settings: Human immunodeficiency virus 1, Jurkat
pIC50: −log10 of the molar value.

Some solved cases for reference:
CSc1ccc(Cc2cc(C3CCN(C(=O)c4ccc5c(c4)OCO5)CC3)nc(N)n2)cc1    6.70
Nc1nc(-c2ccccc2)cc(C2CCN(C(=O)c3ccc4c(c3)OCO4)CC2)n1    < 5.30
COc1cc(Cc2cc(C3CCN(C(=O)c4ccc5c(c4)OCO5)CC3)nc(N)n2)cc(OC)c1    6.52

Give recorded pIC50. COc1cccc(Cc2cc(C3CCN(C(=O)c4ccc5c(c4)OCO5)CC3)nc(N)n2)c1
6.52

Give recorded pIC50. COc1ccc(OC)c(Cc2cc(C3CCN(C(=O)c4ccc5c(c4)OCO5)CC3)nc(N)n2)c1
6.70
